Entry source: patent US20240376189A1

In this section we review reported koff values for a set of binders.
Assayed target: T1, human C5a (human, UniProt P01031 678-751, biotinylated in the U937/C5aR ligand blocking assay (site not stated))
T1 construct: also called human antigen; huC5a
T1 sequence: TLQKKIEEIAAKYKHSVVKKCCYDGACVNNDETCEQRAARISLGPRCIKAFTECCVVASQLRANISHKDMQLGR
Test description: SPR, scFv captured via anti-c-myc/anti-His, 5 nM human antigen as analyte, 1:1 fit
Quantity: koff (s⁻¹)

| Binder | Censoring qualifier | Observed value |
| --- | --- | --- |
| 16F10 (scFv, V domains shown, Combination mutant scFv) VH: QVQLVQSGAEVKKPGSSVKVSCKASGYTFTDHIIHWMRQAPGQGLEWMGYIYPREGWTNYNENFKGRVTITADKSTSTAYMELSSLRSEDTAVYYCARERNLEYFDYWGQGTTVTVSS VL: DIVLTQSPASLAVSPGQRATITCKASQSVDFEGFNYMNWYQQKPGQPPKLLIYAASNLDSGVPARFSGSGSGTDFTLTINPVEAEDTANYYCQQSVEDPHTFGGGTKVEIK | = | 1.14e-05 |
| 19D2 (scFv, V domains shown, Combination mutant scFv) VH: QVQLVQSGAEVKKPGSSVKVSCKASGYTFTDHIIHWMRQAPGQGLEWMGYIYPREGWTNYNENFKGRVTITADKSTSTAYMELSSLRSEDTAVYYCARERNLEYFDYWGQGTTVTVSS VL: DIVLTQSPASLAVSPGQRATITCKASQSVDFEGDNYMNWYQQKPGQPPKLLIYATSNLDSGVPARFSGSGSGTDFTLTINPVEAEDTANYYCQQSLEDPHTFGGGTKVEIK | < | 1e-05 |
